// provenance: patent US9688695B2

- MEASURED TARGET: PAR4 (Homo sapiens (Human), UniProt Q96RI0)
- Sequence (Q96RI0 18-385): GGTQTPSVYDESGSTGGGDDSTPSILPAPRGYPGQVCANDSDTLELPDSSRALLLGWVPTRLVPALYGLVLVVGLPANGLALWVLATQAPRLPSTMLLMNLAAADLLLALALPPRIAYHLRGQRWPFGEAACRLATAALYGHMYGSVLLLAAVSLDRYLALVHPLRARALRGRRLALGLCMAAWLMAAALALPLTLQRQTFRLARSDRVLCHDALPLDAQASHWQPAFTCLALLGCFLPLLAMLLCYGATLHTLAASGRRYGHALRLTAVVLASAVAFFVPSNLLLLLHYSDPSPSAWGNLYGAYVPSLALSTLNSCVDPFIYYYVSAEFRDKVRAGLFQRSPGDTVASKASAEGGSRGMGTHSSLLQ
- EXPERIMENTAL PROTOCOL: FLIPR assay in PAR4-expressing HEK293 cells (PAR4 antagonist activity, calcium mobilization)
- Format: cell-based
- PARTICULARS: H-Ala-Phe(4-F)-Pro-Gly-Trp-Leu-Val-Lys-Asn-Gly-NH2-induced calcium mobilization
- From the text: The FLIPR assay is an exemplary in vitro assay for measuring the activity of the PAR4 antagonists of the present invention. In this assay, intracellular calcium mobilization is induced in PAR4 expressing cells by a PAR4 agonist and calcium mobilization is monitored. See, e.g., Example A. […]
Field: pEC50. Provide a value for each of the compounds that follow.
Expect pEC50 as a plain number equal to -log10 of the molar concentration.

Please look at this compound and report its pEC50: `COc1cc(OCc2csc(N3CCOCC3)n2)c2cc(-c3cn4nc(C)ccc4n3)oc2c1` 8.48

Please look at this compound and report its pEC50: `COc1cc(OCc2csc(NC(C)C)n2)c2cc(-c3cn4nc(C)ccc4n3)oc2c1` 8.77

Please look at this compound and report its pEC50: `COc1nn2cc(-c3cc4c(OCc5csc(-c6cccc(C)c6)n5)cc(Cl)cc4o3)nc2s1` 8.89

Please look at this compound and report its pEC50: `CCN(C)C(=O)c1ccc(-c2nc(COc3cc(OC)cc4oc(-c5cn6nc(OC)sc6n5)cc34)cs2)cc1` 9.19
